- method: NCI Yeast Anticancer Drug Screen. Data for the mlh1 rad18 strain (AID 175)
- conditionNotes: S. cerevisiae mlh1 rad18 strain growth inhibition; at 50.0 µM (retest, dose inferred, filed as 5.0)
Compounds without any hit were thinned out: in the full panel of roughly 79,000, 15% have a hit. Activity calls are given as the source filed them. Rule as the data show it: active = growth inhibition above about 70%; inactive = the rest.
Outcomes: active, inactive

1. Nc1nc(N)c(-c2ccc(Cl)c(Cl)c2)c(CP(Cl)(Cl)(Cl)Br)n1 ... active
2. C[C@H](N)C(=O)N[C@@H]1[C@H]2C(=C(O)C[C@@H](O)[C@@H]2O)C(=O)O[C@]1(C)C(Cl)Cl ... inactive
3. O=[N+]([O-])c1ccc(N2CCC(CCCC3CCN(c4ccc([N+](=O)[O-])cc4[N+](=O)[O-])CC3)CC2)c([N+](=O)[O-])c1 ... active
4. ClC1=NSSC1(Cl)Cl ... active
5. NNc1ccccc1Cl ... active
6. O=[N+]([O-])c1ccc(-n2nc3ccc4c(no[n+]4[O-])c3[n+]2[O-])c([N+](=O)[O-])c1 ... active

====

- method: NCI Yeast Anticancer Drug Screen. Data for the mec2-1 strain (AID 157)
- conditionNotes: S. cerevisiae mec2-1 strain, at 50.0 µM (retest, dose inferred, filed as 5.0)
This is part of a sample that, as a whole, favours compounds with a hit. Of some 79,000 tested, about 15% had one in any assay. Calls of active or inactive are those of the source. Rule as the data show it: active = growth inhibition above about 70%; inactive = the rest.
Outcomes: class 1 for active, class 0 for inactive

1) CCNC(C)(C)C(SS)c1ccc(Br)cc1 (centres undefined) ... class 0
2) Clc1ccc(CCN2CCOCC2)c(Cl)c1 ... class 0
3) CCCCN(CC)CC(C(C)=O)c1c(O)c2ccccc2oc1=O (centres undefined) ... class 0
4) C/C(=N\N=C(/[Se])N1CC2CCC(CC2)C1)c1ccccn1 ... class 1
5) CC1(O)CC([CH2][Hg][I])OC([CH2][Hg][I])C1 (centres undefined) ... class 1
6) CSc1ccccc1[As](C)C ... class 1
7) CC(=O)OC1CCC2(C)C(CCC3C4=CCC(C5=CC(=O)OC5)C4(C)CCC32)C1 (centres undefined) ... class 0
8) O=C(O)c1cc[c]([Hg])cc1 ... class 0
9) CC(O[Si](c1ccccc1)(c1ccccc1)C(C)(C)C)[C@H](NC(=O)OC(C)(C)C)C(=O)O (some centres undefined) ... class 1

====

- method: NCI Yeast Anticancer Drug Screen. Data for the mec2-1 strain (AID 157)
- conditionNotes: S. cerevisiae mec2-1 strain, at 50.0 µM (retest, dose inferred, filed as 5.0), stronger effect = higher value
The panel holds about 79,000 compounds, 15% with a hit somewhere; the sample as a whole holds those more often.
Recorded measurements of growth inhibition, one per entry
measurementType: growth inhibition (%)

1. C[C@]12Cc3conc3C(O)=C1CC[C@@H]1C2CC[C@@]2(C)C1CC[C@@H]2O (stereo partly drawn) ... 0
2. COc1cccc2c1C(=O)c1c(O)c3c(c(O)c1C2=O)C[C@@](O)(C(C)=O)C[C@@H]3OC1CC(N)C(OC2CC(O)C(O)C(C)O2)C(C)O1 (stereo partly drawn) ... 33
3. COc1ccc2c3c1OC1C(=O)C4CC5(c6c(O)ccc(O)c64)C(C2)N(C)CCC315 (stereo not drawn) ... 92
4. COC1OC(COC(C)=O)C(OC(C)=O)C(OC(C)=O)[C]1(OC(C)=O)[Hg][O]C(C)=O (stereo not drawn) ... 100
5. CCCCCCCCCCCCN1CC1 ... -7
6. COc1cccc(C(Cc2ccc(N3C(N)=NC(N)=NC3(C)C)cc2)C(=O)Nc2ccc(S(=O)(=O)F)cc2)c1 (stereo not drawn) ... 99
7. Clc1ccc(-c2cc(=[N+]3CC[N+](=c4cc(-c5ccc(Cl)cc5)ss4)CC3)ss2)cc1 ... -3
8. CN(C)c1ccc(/C=C/c2cc[n+]3ccsc3n2)cc1 ... 94

====

- method: NCI Yeast Anticancer Drug Screen. Data for the sgs1 mgt1 strain (AID 161);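 also: 0% = growth of cultures given vehicle only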
- conditionNotes: S. cerevisiae sgs1 mgt1 strain, at 5.0 µM (retest, dose inferred, filed as 0.5), stronger effect = higher value
The panel holds about 79,000 compounds, 15% with a hit somewhere; the sample as a whole holds those more often.
Recorded measurements of growth inhibition, one per entry
measurementType: growth inhibition (%)

1) COc1cc(/C=C/c2ccc(OC)c(OC)c2)cc(OC)c1 ... -3
2) CCC[CH2][Sn]1([CH2]CCC)[O]C(=O)C(C(C)C)N=Cc2ccccc2[O]1 (stereo not given) ... 12
3) COc1cc(C2c3cc4c(cc3[C@@H](Nc3ccc(F)cc3)C3COC(=O)[C@H]23)OCO4)cc(OC)c1O (stereo not given in full) ... 94
4) O=C1NC(=S)NC(=O)C1=Cc1ccc([N+](=O)[O-])o1 ... 1
5) CC(O[Si](c1ccccc1)(c1ccccc1)C(C)(C)C)[C@H](NC(=O)OC(C)(C)C)C(=O)O (stereo not given in full) ... 13
6) O=[N+]([O-])/C=C/c1cc2c(cc1Br)OCO2 ... 73
7) O=c1c2ccccc2[se]n1-c1ccccc1 ... -4
8) N.N.N.N.N.N#N.[Cl-].[Os+7] ... 33
9) COC(=O)C1c2cc3c(c(O)c2C(O)CC1(C)O)C(=O)c1c(O)cc2c(c1C3=O)OC1OC2(C)C(O)C(N(C)C)C1O (stereo not given) ... -3
10) CCN(CC)C(=S)S ... 58
11) COc1cc2c(cc1OC)C13CCN4CC5=CCOC6CC(=O)N2C1C6C5CC43 (stereo not given) (tested in a mixture with another compound) ... -13
12) CC(C)(C)OC(=O)NC(CSC(c1ccccc1)(c1ccccc1)c1cccs1)C(=O)O (stereo not given) ... 7
13) [Cl][Sn]([Cl])([c]1ccccc1)[c]1ccccc1.c1ccncc1.c1ccncc1 ... 94
14) CCCOc1ccc(/C=C/[N+](=O)[O-])cc1N ... 78
15) ClCCN(CCCl)c1ccc(CN2CCCN(Cc3ccc(N(CCCl)CCCl)cc3Cl)C2c2ccncc2)c(Cl)c1 ... -4
16) O=C(N/N=C/c1ccc(F)cc1)c1ccc(N(CCCl)CCCl)cc1 ... -20
17) O=[N+]([O-])O.O=[N+]([O-])O.[NH-]C1CCCCC1[NH-].[Pt+2] (stereo not given) ... 57
18) c1cc[c]([Sn]([c]2ccccc2)([c]2ccccc2)[CH]2CCCCC2)cc1 ... 20
19) O=[n+]1c2ccccc2n([O-])c2ccccc21.[Cl][Ni][Cl] ... 89
20) C/C1=C\[C@@H](O)C(=O)/C=C/C=C\c2csc(n2)[C@@H](C)NC(=O)C[C@@]2(CC1)S(=O)SC(=O)[C@]2(C)O (stereo not given in full) ... 90
21) CC(=O)[O][Hg][c]1cc2c(cc1O)Cc1cc([N+](=O)[O-])ccc1-2 ... 99
22) COC(=O)C1C2c3ccccc3C(c3ccccc32)C1C(=O)OC (stereo not given) ... 5
23) Cc1ccc([PH+](c2ccc(C)cc2)c2ccc(C)cc2)cc1.Cc1ccc([PH+](c2ccc(C)cc2)c2ccc(C)cc2)cc1.[Cl][Hg][Cl] ... 99
24) O=C(c1ccccc1)c1c(CC(O)c2ccccn2)n(C(=O)c2ccccc2)c2ccccc12 (stereo not given) ... 5
25) FC(F)(F)C1(C(F)(F)F)O[Te]2(OC1(C(F)(F)F)C(F)(F)F)OC(C(F)(F)F)(C(F)(F)F)C(C(F)(F)F)(C(F)(F)F)O2 ... 23
26) [Cl][Hg][Cl] ... 100
27) CC(=O)OCC1OC([S-])C(OC(C)=O)C(OC(C)=O)C1OC(C)=O.CC[PH+](CC)CC.CC[PH+](CC)CC.[Au].[Au] (stereo not given) ... 99
28) CC(C)(C)CC(C)(C)c1ccc(O)cc1 ... -6
29) ClC1=C(Cl)C2(Cl)C(C3CO3)CC1(Cl)C2(Cl)Cl (stereo not given) ... -2
30) CC[C@@]1(O)C(=O)OCc2c1cc1n(c2=O)Cc2cc3ccccc3nc2-1 ... 53
31) CCC[CH2][Sn]1([CH2]CCC)[O]Cc2nc(C)ccc2[O]1 ... 40
32) CC(=O)OCC12CCC(C)=CC1OC1C3(O)N=C(C)OC3C2(C)C12CO2 (stereo not given) ... 46
33) C[C@]12CC[C@H]3[C@@H](C[C@@H](F)C4=CC(=O)CC[C@@]43C)[C@@H]1CC[C@@H]2O ... 4
34) Cc1ccccc1C(=O)CN ... -1
35) CCCCC1C(=O)NC(=S)N(c2ccccc2)C1=O (stereo not given) ... 3

====

- method: NCI Yeast Anticancer Drug Screen. Data for the cln2 rad14 strain (AID 165);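 also: 0% = growth equal to vehicle treated cultures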
- conditionNotes: S. cerevisiae cln2 rad14 strain, at 5.0 µM (retest, dose inferred, filed as 0.5), stronger effect = higher value
About 79,000 compounds went through this panel and 15% of them were active in at least one assay; those are over-represented in the sample as a whole. The source made the active and inactive calls. Cut-off read from the data, not from the text of the source: active = growth inhibition above about 70%; inactive = the rest.
measurementType: growth inhibition

1. CC1=CC2OC3CC4OC(=O)/C=C/C=C/C(=O)OCCC(C)C(O)C(=O)OCC2(CC1O)C4(C)C31CO1 (configuration not stated) ... 97% (active)
2. OC(c1ccc(Br)cc1)C(Cl)(Cl)Cl (configuration not stated) ... 68% (inactive)
3. C[C@]12Cc3conc3C(O)=C1CC[C@@H]1C2CC[C@@]2(C)C1CC[C@@H]2O (some centres not stated) ... 1% (inactive)
4. C/C(=N\Nc1ccccn1)C1CC[N-]C2C(O)CCCC12.C/C(=N\Nc1ccccn1)C1CC[N-]C2C(O)CCCC12.[Cu+2] (configuration not stated) ... 98% (active)
5. ClCC[N+]12CC[N+](CCCl)(CC1)C2 ... 75% (active)
6. O=c1oc2ccccc2c(O)c1C(C/C(CCN1CCCC1)=N\Nc1ccccc1)c1ccccc1 (configuration not stated) ... 8% (inactive)
7. Cc1c2ccccc2cc2ccccc12 ... 51% (inactive)
8. O=Cc1ccc(C(F)(F)F)cc1.[C-]#[O+].[C-]#[O+].[C-]#[O+].[Cr] ... -15% (inactive)
9. CCNCC(=O)O[C@]1(CC)C(=O)OCc2c1cc1n(c2=O)Cc2cc3ccccc3nc2-1 ... 15% (inactive)
10. CCC[CH2][Sn]1([CH2]CCC)[O]CC(c2ccccn2)C[O]1 ... 21% (inactive)
11. O=C1CN2C(Cl)(Cl)C2(c2ccccc2)c2cc(Cl)ccc2N1CC1CC1 (configuration not stated) ... 18% (inactive)
12. Fc1ccc(NP(=S)(Nc2ccc(F)cc2F)Nc2ccc(F)cc2F)c(F)c1 ... 56% (inactive)
13. CCOC(=O)/C(=C\c1ccc(C(=O)OC)cc1)[Se]c1ccccc1 ... 3% (inactive)
14. CC(C)(C)CC(C)(C)c1ccc(O)cc1 ... -7% (inactive)
15. COc1cc2c(cc1OC)C13CCN4CC5=CCOC6CC(=O)N2C1C6C5CC43 (configuration not stated) (tested in a mixture with another compound) ... -3% (inactive)
16. COc1cc(C=Nc2cc(Br)c(OC)c(Br)c2)ccc1N(CCCl)CCCl ... 1% (inactive)
17. CCC[CH2][Sn]([Cl])([CH2]C)[O][Sn]([Cl])([CH2]C)[CH2]CCC (configuration not stated) ... 84% (active)
18. O=C1c2ccccc2C(=O)C(Cl)C1Cl (configuration not stated) ... 10% (inactive)
19. CC(Cc1ccccc1)[N+](=O)[O-] (configuration not stated) ... 3% (inactive)
20. CCC[CH2][Sn]([CH2]CCC)([CH2]CCC)[O]C(=O)C[N+](C)(C)c1cc[c]([Hg][c]2ccc(N(C)C)cc2)cc1 ... 99% (active)
21. COc1cc([C@@H]2c3cc4c(cc3C[C@@H]3COC(=O)C32)OCO4)cc(OC)c1O (some centres not stated) ... 9% (inactive)
22. c1ccc2c(c1)c1cccc3c4c5ccccc5c5cccc(c2c13)c54 ... 1% (inactive)
